FYI, the data here is from paper PMC4926610.

molecular target: type I AAA+ chaperone ClpX (Escherichia coli, UniProt P0A6H1); test: Malachite green ATPase assay, ClpX
Sequence (P0A6H1 whole entry): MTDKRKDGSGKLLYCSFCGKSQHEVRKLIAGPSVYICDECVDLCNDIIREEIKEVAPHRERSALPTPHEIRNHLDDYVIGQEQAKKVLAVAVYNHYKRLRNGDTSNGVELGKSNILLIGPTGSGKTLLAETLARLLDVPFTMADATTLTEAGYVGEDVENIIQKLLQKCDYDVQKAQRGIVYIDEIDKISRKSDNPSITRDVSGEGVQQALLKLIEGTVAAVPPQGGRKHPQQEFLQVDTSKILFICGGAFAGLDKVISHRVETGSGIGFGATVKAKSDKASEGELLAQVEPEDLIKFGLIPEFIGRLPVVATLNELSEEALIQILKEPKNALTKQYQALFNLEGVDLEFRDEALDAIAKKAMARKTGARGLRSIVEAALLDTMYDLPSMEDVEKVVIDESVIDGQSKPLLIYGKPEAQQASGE
pIC50: −log10 of the molar value.
METRIC: pIC50

Query: State its pIC50 for this compound: C=C1OC(=O)C2(C1=O)[C@H](/C=C/C=C/CCC)C=C[C@@H](O)[C@@H]2O (mixture of isomers) [compound 2, oxaspirol B]
Response: < 3.70

---

target: chaperonin GroEL (Escherichia coli)
Sequence (P0A6F5 whole entry): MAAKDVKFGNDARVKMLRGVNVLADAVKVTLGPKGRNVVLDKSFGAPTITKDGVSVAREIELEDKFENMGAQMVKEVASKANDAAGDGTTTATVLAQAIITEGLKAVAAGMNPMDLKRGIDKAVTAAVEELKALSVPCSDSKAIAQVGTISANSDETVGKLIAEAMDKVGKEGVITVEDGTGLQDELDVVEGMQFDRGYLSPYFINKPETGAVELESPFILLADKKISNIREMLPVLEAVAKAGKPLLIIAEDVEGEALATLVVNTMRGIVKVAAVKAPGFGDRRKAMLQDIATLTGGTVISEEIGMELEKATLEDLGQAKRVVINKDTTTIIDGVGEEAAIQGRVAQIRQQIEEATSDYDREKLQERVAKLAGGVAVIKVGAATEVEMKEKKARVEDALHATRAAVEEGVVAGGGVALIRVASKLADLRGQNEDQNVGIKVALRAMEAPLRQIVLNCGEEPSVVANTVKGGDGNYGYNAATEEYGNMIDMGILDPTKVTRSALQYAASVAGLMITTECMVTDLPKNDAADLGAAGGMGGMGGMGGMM
METRIC: IC50

Query: Report IC50 on chaperonin GroEL (Escherichia coli) for this entry: C=C1OC(=O)C2(C1=O)[C@H](/C=C/C=C/CCC)C=C[C@@H](O)[C@@H]2O (mixture of isomers)
Response: > 200 µM
